# credit: patent US3957987A

The following compounds are listed with their measured MIC values.
Test system: Mycoplasma S6
Assay: Minimum inhibitory concentration, Mycoplasma S6
Type: cell-based
Reply numerically in µg/mL, unit not repeated.

Prompt: Any idea what its MIC is? The compound is COC(=O)NN=Cc1c(C(=O)NC(C)C)[n+]([O-])c2ccccc2[n+]1[O-]
Completion: 100

Prompt: Item O=C(NCCO)c1c(C=NNC(=O)N2CCOCC2)[n+]([O-])c2ccccc2[n+]1[O-] has what recorded MIC?
Completion: 100

Prompt: Would you mind telling me what MIC value was observed for COC(=O)NN=Cc1c(C(=O)N2CCCC2)[n+]([O-])c2ccccc2[n+]1[O-] ?
Completion: 10

Prompt: I would be grateful if you could share the reported MIC for COC(=O)NN=Cc1c(C(=O)N2CCCCC2)[n+]([O-])c2ccccc2[n+]1[O-] .
Completion: 10
